# Tested on: COLO 205 colon
# Test Name: NCI tumour cell line growth inhibition, 48 h
Quantity Name: TGI

These solved cases illustrate the format of a correct answer.
>  <Compound>
CCCCC/C=C\C=C1\C(=O)C=C[C@@H]1C/C=C\CCCC(=O)O

>  <Quantity Name>
TGI

>  <Result>
9.36 µM

$$$$
>  <Compound>
Cc1ccc(N(C)S(=O)(=O)c2ccc([N+](=O)[O-])cc2)cc1

>  <Quantity Name>
TGI

>  <Result>
> 100 µM

$$$$
>  <Compound>
O=C1C=Cc2cscc21

>  <Quantity Name>
TGI

>  <Result>
> 100 µM

$$$$
>  <Compound>
COc1ccc(C2=C(c3cn(C)c4ccccc34)C(=O)NC2=O)cc1

>  <Quantity Name>
TGI

>  <Result>
> 25 µM

$$$$

Request - read-out TGI | tested on COLO 205 colon | compound O=C(CC(=O)Nc1ccccc1Cl)NNC(c1cc(N=Nc2ccc(Br)cc2)ccc1O)P(O)O (centres undefined)
> 10 µM

Request - read-out TGI | tested on COLO 205 colon | compound C=CCN(C(=O)OC(C)(C)C)C1=CC2C(C)=CN(S(=O)(=O)c3ccccc3)C2C(OCc2ccccc2)=C1 (centres undefined)
> 100 µM

Request - read-out TGI | tested on COLO 205 colon | compound O=C(Nc1ccn(C2CC(O)C(CO)O2)c(=O)n1)c1ccccc1 (centres undefined)
> 100 µM

Request - read-out TGI | tested on COLO 205 colon | compound C[N+]1(C)C/C(=C/c2ccc(F)cc2)C(=O)/C(=C\c2ccc(F)cc2)C1
> 100 µM

Request - read-out TGI | tested on COLO 205 colon | compound COC(=O)NC(Nc1ccc(Cl)cc1Cl)(C(F)(F)F)C(F)(F)F
> 100 µM

Request - read-out TGI | tested on COLO 205 colon | compound COc1cc(/C=C2\CC3C4CCC5=CC(=O)CC[C@]5(C)C4CC[C@]3(C)C2=O)ccc1OCCCn1ccnc1 (some centres undefined)
22.7 µM

Request - read-out TGI | tested on COLO 205 colon | compound O=C(c1ccccc1)N1C2C3CC(OCc4ccccc4)(OCc4ccccc4)C(O3)C21 (centres undefined)
> 100 µM

Request - read-out TGI | tested on COLO 205 colon | compound CN(CCNC(=O)c1[nH]nc2c1Cc1ccccc1-2)CCNC(=O)c1[nH]nc2c1Cc1ccccc1-2
31.9 µM

Request - read-out TGI | tested on COLO 205 colon | compound CCc1c2c(nc3ccc(O)cc13)-c1cc3c(c(=O)n1C2)COC(=O)[C@]3(O)CC
12.2 µM

Request - read-out TGI | tested on COLO 205 colon | compound O=C([O-])c1ccc2c(c1)-c1nc-2nc2[n-]c(nc3nc(nc4[n-]c(n1)c1ccc(C(=O)[O-])cc41)-c1ccc(C(=O)[O-])cc1-3)c1ccc(C(=O)[O-])cc21.[Gd+3].[K+]
> 55.2 µM
